Assay: Tissue distribution of THP, DHC and protopine in rat tissues after gastric gavage administration (HPLC-UV, non-compartmental analysis)
Format: in vivo, Wistar male rats
Details: male, Wistar, po, 6.45 mg/kg, rat cerebrum, read-out: AUC0–24 h of THP
MEASURED PROPERTY: AUC(0-t) (ng·h/mL)
Number only, in ng·h/mL; omit the unit.

Problem: Would you mind telling me what AUC(0-t) value was observed for COc1cc2c(cc1OC)[C@@H]1Cc3ccc(OC)c(OC)c3CN1CC2 [THP, tetrahydropalmatine] ?
Solution: 860

----------
Test: Tissue distribution of THP, DHC and protopine in rat tissues after gastric gavage administration (HPLC-UV, non-compartmental analysis)
Type: in vivo, Wistar male rats
Conditions: male, Wistar, po, 4.52 mg/kg, rat hippocampus, read-out: AUC0–24 h of protopine
MEASURED PROPERTY: AUC(0-t) (ng·h/mL)
Number only, in ng·h/mL; omit the unit.

Problem: Would you mind telling me what AUC(0-t) value was observed for CN1CCc2cc3c(cc2C(=O)Cc2ccc4c(c2C1)OCO4)OCO3 [protopine] ?
Solution: 3660

// data source = paper PMC6268586
